# targetSystem: His-AKT (Full Length) (Homo sapiens (Human), UniProt P31749)
# Sequence (P31749 whole entry): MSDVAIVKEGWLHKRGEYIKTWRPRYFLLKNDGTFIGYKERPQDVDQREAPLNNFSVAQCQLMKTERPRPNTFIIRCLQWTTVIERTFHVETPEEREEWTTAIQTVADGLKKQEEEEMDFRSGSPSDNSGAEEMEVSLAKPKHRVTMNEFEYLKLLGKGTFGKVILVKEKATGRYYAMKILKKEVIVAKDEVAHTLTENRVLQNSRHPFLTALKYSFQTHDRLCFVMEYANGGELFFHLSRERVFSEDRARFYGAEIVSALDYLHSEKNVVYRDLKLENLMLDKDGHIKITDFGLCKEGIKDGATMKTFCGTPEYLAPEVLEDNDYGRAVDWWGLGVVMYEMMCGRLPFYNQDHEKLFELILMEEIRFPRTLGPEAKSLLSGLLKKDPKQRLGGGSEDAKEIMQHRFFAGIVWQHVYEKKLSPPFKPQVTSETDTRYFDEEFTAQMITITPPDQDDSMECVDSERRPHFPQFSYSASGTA
# testSummary: AKT/PKB kinase assay
# Type: biochemical
# experimentalConditions: 160 μM ATP, 90 min at 25° C., Caliper mobility shift
# Method: In order to measure AKT inhibition in the Caliper Life Sciences LC3000, a TTP Mosquito liquid handling instrument was used to place 125 nl of the appropriate concentration of inhibitor in 100% DMSO (for a dose response curve calculation) into each well of a 384-well plate. […]
pIC50: −log10 of the molar value.
Quick list: pIC50 per entry.

// known answers, use as guide
molecule="CNC[C@@H](Nc1ncnc2c(C(N)=O)ccnc12)c1ccc(F)c(C(F)F)c1 [Compound 51]" observedproperty=pIC50 value="> 7.60"
molecule="CNC[C@@H](Nc1ncnc2c(C(N)=O)ccnc12)c1ccc(F)c(C)c1 [Compound 67]" observedproperty=pIC50 value="> 7.60"
molecule="NC(=O)c1cccc2c(NCc3cccc(C(F)(F)F)c3)nnnc12 [Compound 1]" observedproperty=pIC50 value="< 6.00"
molecule="NC(=O)c1cccc2c(N[C@H](CN3CCC3)c3ccc(Cl)c(Cl)c3)nnnc12 [Compound 16]" observedproperty=pIC50 value="> 7.60"
molecule="NC(=O)c1ccnc2c(NC3CNCCC3c3ccc(F)c(Cl)c3)ncnc12 (centres unmarked) [Compound 23]" observedproperty=pIC50 value="6.30 to 7.00"
molecule="CNC[C@@H](Nc1ncnc2c(C(N)=O)ccnc12)c1ccc(C)c(C(F)(F)F)c1 [Compound 76]" observedproperty=pIC50 value="> 7.60"
molecule="NC(=O)c1cccc2c(NCc3cccnc3)nnnc12 [Compound 3]" observedproperty=pIC50 value="< 6.00"
molecule="NC(=O)c1ccnc2c(NC3CNCCC3c3ccc(C(F)(F)F)cc3)ncnc12 (centres unmarked) [Compound 25]" observedproperty=pIC50 value="6.00 to 6.30"

The molecule NC(=O)c1cccc2c(NCc3ccccc3)nnnc12 [Compound 6] showed pIC50 equal to < 6.00

Data provenance: patent US9981925B2
